B1: SPSB1 (parent)
chain: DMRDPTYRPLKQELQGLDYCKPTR

- Variants of: B1
- measurement_description: protein stability index of a GFP-peptide fusion (GPS, HEK-293T) (PSI 1-6); higher = more stable;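 also: lentivirally expressed fusions sorted by FACS into six bins by GFP to DsRed ratio, PSI derived from sequencing read proportions per bin multiplied by bin number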
- settings: c terminus: a fixed tail appended
measurement_name: protein stability index
Numbers only.

Use these answered entries as a reference point.
Reported protein stability index ( DMRDPTYRPLKQELQGLDYCKPTC [R24C] ) = 1.93

The variant DMRFPTYRPLKQELQGLDYCKPTR [D4F] showed protein stability index equal to 3.47

protein stability index recorded for this variant, DMRDPWYRPLKQELQGLDYCKPTR [T6W] , is 4.09

Just so you know, measured protein stability index for DMRVPTYRPLKQELQGLDYCKPTR [D4V] came out at 2.81

Query DPRDPTYRPLKQELQGLDYCKPTR [M2P] yields protein stability index of 4.62

Fill in protein stability index for each of the 4 variants listed.
1. DMRDPMYRPLKQELQGLDYCKPTR [T6M]
2. DMRDPTYRPLKQELQGLDRCKPTR [Y19R]
3. DMRDPTYGPLKQELQGLDYCKPTR [R8G]
4. DMRDYTYRPLKQELQGLDYCKPTR [P5Y]

OUTPUT:
1. 2.92
2. 4.4
3. 3.43
4. 2.93

Entry DMRRPTYRPLKQELQGLDYCKPTR [D4R] — recorded protein stability index = 3.53

Data origin: the supplement of paper PMC10567573
